Target: baboon albumin (baboon)
Test: SPR, albumin (6.3-100 µM) over immobilized biotinylated ABM2-Cp20; apparent affinity (KD app) from steady state, single-binding-site model
quantity-measured: Kd (µM)
Give bare numbers, in µM.

According to the records, this binder ICVWQDWGAHRCIK (not fully specified; ABM2 amide-linked to the N-terminus; Trp(Me) at position 4; Sar at position 8; mIle at position 13; disulfide Cys2-Cys12; miniPEG (AEEEA) spacer between mIle13 and the C-terminal Lys; biotin on the Lys side chain; made on Rink amide resin (C-terminal amide), Captured on streptavidin-coated CM5 chip at about 100 RU; also called biotinylated ABM2-Cp20; immobilized ABM2-Cp20) [ABM2-Cp20-miniPEG-Lys(biotin)] displays Kd of 106

Measured values drawn from patent US20170173107A1 for this set.
